Examples of compounds with documented normalized growth follow.
- measurementNotes: chemical genetic growth profiling, strain panel (AID 1159580);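 further: tested at 20 µM; growth read once vehicle control cultures reached saturation at 30 °C; 1 = growth at the plate median or of vehicle wells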
- measurementConditions: S. cerevisiae deletion strains, growth OD, locus YAL030W, strain snc1, hits give low values
Out of some 5,500 compounds screened, about 2,000 (36%) were called active. Inconclusive results (about 18%) are left out. The list shows a part of the results.
Lab note: record just the number, no unit beside it.

Before answering, review these 4 worked examples.
compound	reportedMetric	valueReported
COc1ccc(-c2cc(=O)c3c(O)c(OC)c(OC)c(OC)c3o2)cc1OC	normalized growth	0.995
COc1ccc(-c2cc(=O)c3c(O)cc(O)cc3o2)cc1	normalized growth	1
CCCCCC(O)C1C(=O)OC(C)C(O)/C=C/C=C/C=C/C=C/C=C(\C)C(O)CC(O)CC(O)CC(O)CC(O)CC(O)CC1O (stereo not given)	normalized growth	0.985
COc1ccc(-c2cc(=O)c3c(OC)c(OC)c(OC)c(OC)c3o2)cc1OC	normalized growth	0.999

Which normalized growth is reported for this compound? COc1ccc(-c2cc(=O)c3c(O)c(OC)c(O[C@H]4O[C@H](CO[C@@H]5O[C@@H](C)[C@H](O)[C@@H](O)[C@H]5O)[C@@H](O)[C@H](O)[C@H]4O)cc3o2)cc1 1.01

----------
- measurementNotes: chemical genetic growth profiling, strain panel (AID 1159580)
- measurementConditions: S. cerevisiae deletion strains, growth OD, locus YBR160W, strain CDC28
Screen size: about 5,500 compounds; about 2,000 (36%) were called active. Not shown: some 18% with an inconclusive outcome. Cut-off read from the data, not from the text of the source: active = normalized growth mostly below about 0.91 (no sharp cut-off); inconclusive = no clear call, values can overlap the other calls; inactive = mostly above about 0.92. This is one part of the list.
Respond with a class label; see yes = active, no = inactive

Check out these entries, answers already filled in.
compound	classAssignment
O=C1Nc2ccccc2/C1=C\c1cccc2ccccc12	no
FC(F)(F)Oc1ccc(OCc2n[nH]c(=S)n2-c2ccc(Cl)cc2)cc1	no
ONC(=Nc1ccccc1Cl)c1ccccc1Cl	no

Check the results log: what was the call for O=c1[nH][nH]c(=O)n1CCCc1cc2cccc3ccc4cccc1c4c32 ? no

Could you please tell me the result logged for O=C(Nc1ccc(SC(F)(F)F)cc1)Nc1ccc(Oc2cccc(C(F)(F)F)c2)nc1 in this assay? no

For this compound, state the assay outcome: O=C1/C(=C/c2c[nH]c3ccccc23)CSc2ccccc21 no

Record lookup: outcome of this test for Clc1cccc(Cl)c1C1CC(c2ccccc2)=Nc2ccccc2S1 (stereo not given) ? no

Lab log entry: FC(F)(F)Sc1ccc(OCc2n[nH]c(=S)n2-c2ccccc2)cc1 — outcome as called in the assay? no

----------
- measurementNotes: chemical genetic growth profiling, strain panel (AID 1159580)
- measurementConditions: S. cerevisiae deletion strains, growth OD, locus YJR075W, strain HOC1, hits give low values
Hit rate of the full screen: of about 5,500 compounds, about 2,000 (36%) were called active. Roughly 18% stayed inconclusive and do not appear here. Some of the results follow.
Rule: normalized growth below 1 gives True, anything at or above gives False.

compound	classAssignment
O=C(CCCN1CCC2(CC1)C(=O)N(CCc1ccc(N=C=S)cc1)CN2c1ccccc1)c1ccc(F)cc1	True
COc1ccc(-c2cc(=O)c3c(O)cc(O)cc3o2)cc1O	False
COc1ccc(-c2cc(=O)c3c(O)cc(O)c(-c4cc(-c5cc(=O)c6c(O)cc(O)cc6o5)ccc4OC)c3o2)cc1	False
NNC(=O)c1cccnc1Oc1ccccc1	False
O=C(O/N=C1/CCCc2[nH]c3ccccc3c21)c1ccc(Cl)cc1Cl	True

I wonder whether COc1cc(C(=O)O)cc(OC)c1OC has normalized growth below 1. Can you tell? False

Lab note: normalized growth threshold 1. Does this compound come in strictly under it? CO[C@@H]1C[C@H](O[C@H]2CC[C@]3(C)C4CC[C@]5(C)[C@@H](C6=CC(=O)OC6)CC[C@]5(O)[C@@H]4CC[C@]3(O)C2)O[C@H](C)[C@@H]1O (some centres undefined) True

# strict comparison: is reported normalized growth < 1? input = O=C(O)CCC(=O)N1CCCC1C(=O)O (centres undefined) False

hey, is normalized growth for Cn1c(SCC(=O)N2CCOCC2)nnc1-c1ccc2ncccc2c1 lower than 1 or not? False

----------
# normalized growth annotations
- measurementNotes: chemical genetic growth profiling, strain panel (AID 1159580)
- measurementConditions: S. cerevisiae deletion strains, growth OD, locus YJL095W, strain BCK1 (second series), hits give low values
About 2,000 (36%) of roughly 5,500 compounds were called active. About 18% were inconclusive and are not listed. This is one part of the list.
// response body must contain only the number

Examples with answers:
compound	reportedMetric	valueReported
CC(C)(C)NCC(O)COc1cccc2c1C[C@H](O)[C@H](O)C2 (some centres not stated)	normalized growth	1.01
CC(=O)Oc1ccccc1C(=O)Oc1ccccc1C(=O)O	normalized growth	0.997
CC1CCCC(C)N1NC(=O)c1ccc(Cl)c(S(N)(=O)=O)c1 (configuration not stated)	normalized growth	1.01

Can you share its normalized growth? I mean this compound: CC1Cc2ccccc2N1NC(=O)c1ccc(Cl)c(S(N)(=O)=O)c1 (configuration not stated) 1

Which value of normalized growth has been reported for O=C(Oc1ccccc1C(=O)O)c1ccccc1O in the records? 0.972

Suppose we examine the compound C=CCSSCC=C ; what normalized growth value has been reported? 1.03

// returns reported normalized growth for input Cc1c(C(N)=O)cc([N+](=O)[O-])cc1[N+](=O)[O-] 1.04

Fill in the blank: the reported normalized growth of C=CCSC[C@@H](N)C(=O)O is ____. 1.01

So what does the record say about normalized growth for CO[C@@H]1[C@@H](OC(N)=O)[C@@H](O)[C@H](Oc2ccc3c(O)c(NC(=O)c4ccc(O)c(CC=C(C)C)c4)c(=O)oc3c2C)OC1(C)C ? 1.04

Entry under review: C=CCSSSCC=C . Reported normalized growth? 0.991

Fill blank: measured normalized growth of the compound NCCCC(O)(P(=O)(O)O)P(=O)(O)O is ____. 0.985

What value of normalized growth has been reported for the following compound? NC(=O)c1ccc([N+](=O)[O-])cc1Cl 0.969

----------
- measurementNotes: chemical genetic growth profiling, strain panel (AID 1159580);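 further: tested at 20 µM; growth read once vehicle control cultures reached saturation at 30 °C; 1 = growth at the plate median or of vehicle wells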
- measurementConditions: S. cerevisiae deletion strains, growth OD, locus YGR135W, strain pre9, hits give low values
About 2,000 (36%) of roughly 5,500 compounds were called active. Inconclusive results (about 18%) are left out. The list shows a part of the results.
reportedMetric: normalized growth
Give the figure only, with no unit attached.

# count of solved cases: 4
molecule	valueReported
CCc1ccc2c(O)c3c(cc2c1C(=O)OC)C(=O)c1c(O)ccc(O)c1C3=O	0.94
COc1ccc(-c2cc(=O)c3c(O)cc(O)cc3o2)cc1O	0.962
CN(C)CC[C@H](c1ccc(Cl)cc1)c1ccccn1	1
COc1ccc(-c2cc(=O)c3c(O)cc(O)cc3o2)cc1	0.984

// moving on: another record for normalized growth
Reported normalized growth, molecule CO[C@@H]1C[C@H](O[C@H]2CC[C@]3(C)C4CC[C@]5(C)[C@@H](C6=CC(=O)OC6)CC[C@]5(O)[C@@H]4CC[C@]3(O)C2)O[C@H](C)[C@@H]1O (stereo partly drawn) : ____ 0.865

----------
- measurementNotes: chemical genetic growth profiling, strain panel (AID 1159580);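 further: tested at 20 µM; growth read once vehicle control cultures reached saturation at 30 °C; 1 = growth at the plate median or of vehicle wells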
- measurementConditions: S. cerevisiae deletion strains, growth OD, locus YNL153C, strain GIM3, hits give low values
The whole screen tested about 5,500 compounds, of which about 2,000 (36%) were called active. Roughly 18% stayed inconclusive and do not appear here. This is one part of the list.
reportedMetric: normalized growth
Enter a number only.

compound	reportedMetric	valueReported
CCOC(=O)/C(C#N)=C/Nc1ccc2c(c1)OCO2	normalized growth	1.02
CN[C@@H]1C[C@@H](c2ccc(Cl)c(Cl)c2)c2ccccc21	normalized growth	0.663
O=C1CC(=O)CC(c2ccc(Cl)c(Cl)c2)C1	normalized growth	0.997
C[C@@H]1CCC2[C@](C)(CO)[C@@H](O)CC[C@]2(C)[C@@]12CC[C@@](CO)(CCO)O2 (some centres undefined)	normalized growth	1.04

Moving on to another compound below.
Name the recorded normalized growth for CC1(C)S[C@@H]2[C@H](NC(=O)[C@@H](N)c3ccc(O)cc3)C(=O)N2[C@H]1C(=O)O . 1

----------
- measurementNotes: chemical genetic growth profiling, strain panel (AID 1159580);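 further: tested at 20 µM; growth read once vehicle control cultures reached saturation at 30 °C; 1 = growth at the plate median or of vehicle wells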
- measurementConditions: S. cerevisiae deletion strains, growth OD, locus YOR270C, strain vph1, hits give low values
Screen size: about 5,500 compounds; about 2,000 (36%) were called active. Not shown: some 18% with an inconclusive outcome. The list shows a part of the results.
Reported normalized growth values for the following molecules.

Worked cases, normalized growth given:
molecule	normalized growth
NC[C@H]1O[C@H](OC2[C@@H](N)C[C@@H](N)[C@H](O[C@H]3O[C@H](CO)[C@@H](O)[C@H](N)[C@H]3O)[C@H]2O)[C@H](O)[C@@H](O)[C@@H]1O (stereo partly drawn)	1.02 (inactive)
NC[C@H]1O[C@H](O[C@H]2[C@H](O)[C@@H](O[C@H]3O[C@H](CO)[C@@H](O)[C@H](N)[C@H]3O)[C@H](N)C[C@@H]2N)[C@H](N)[C@@H](O)[C@@H]1O	0.968 (inactive)

Give the measured normalized growth of C[N+]1(C)C[C@H](O)[C@H](C(=O)[O-])C1 . 1.02 (inactive)

May I ask what normalized growth has been recorded for CC1CCCC(C)N1NC(=O)c1ccc(Cl)c(S(N)(=O)=O)c1 (stereo not drawn) ? 1.04 (inactive)

Quick one: normalized growth of CC1(C)S[C@@H]2C(N3C(=O)[C@@H](c4ccccc4)NC3(C)C)C(=O)N2[C@H]1C(=O)O (stereo partly drawn) ? 1.08 (inactive)

I'd like to know its normalized growth. The molecule in question is C[C@@H](CO)NC(=O)C1C=C2c3cccc4[nH]cc(c34)C[C@H]2N(C)C1 (stereo partly drawn) 1 (inactive)

GET /values?readout=normalized growth&item= CC(=O)Oc1ccccc1C(=O)Oc1ccccc1C(=O)O 1.01 (inactive)

Form field: reported normalized growth of CC1Cc2ccccc2N1NC(=O)c1ccc(Cl)c(S(N)(=O)=O)c1 (stereo not drawn) 0.997 (inactive)
